// data source = ChEMBL document CHEMBL3433997

# Tested System: Glucose transporter (Leishmania mexicana)
# Assay Comment: ST_JUDE_LEISH: Cytotoxicity at 2uM final concentration against transgenic Leishmania Mexicana promastigotes LmGT2 that are glucose transport deficient and complemented with the L. Mexicana glucose transporter 2. Activity is measured by DNA content using SYBR green in vitro
# Type: functional
Reported inhibition values for a set of compounds
Kindly answer with a numeric value in %, unit omitted.

COc1ccc2c(c1)nc(CNC(=N)N)n2Cc1ccc(Cl)cc1
1.85
Cc1cc(N(C)C)nc(Nc2ccc(NC(=O)COc3ccccc3)cc2)n1
-2.15
Cc1cc(-c2ccc(S(=O)(=O)Nc3cc4c(cc3OC(C)C)CCN(C)CC4)cc2)ccc1Cl
-2.35
COc1ccc(NC(=O)c2ccc(C=Cc3ccc(C(F)(F)F)cc3)cc2)cc1N1CCN(C)CC1
-0.41
CCc1cc(-c2n[nH]c(C(F)(F)F)c2-c2ccccc2)c(O)cc1OC
2.44

Known value: Glucose transporter (Leishmania mexicana) inhibition of the compound CCC1CN2CCc3c([nH]c4ccccc34)C2CC1CC1NCCc2cc(OC)c(OC)cc21 (stereo not given) equals 0.99

For CC(C)c1ccc(CN2CCCCC(NC(=O)c3cc(-c4ccccc4Cl)cs3)C2)cc1 (stereo not given) on Glucose transporter (Leishmania mexicana), measured inhibition was -4.09

Query "COc1ccc(CNc2nccc3ccc(-c4ccc(N)nc4)cc23)cc1" on Glucose transporter (Leishmania mexicana); inhibition returned: -0.73

Observed inhibition on Glucose transporter (Leishmania mexicana), entry "CCCCC(=O)Nc1cc(=O)[nH]c2nc(-c3ccc(Cl)cc3)nn12" , equals -0.39

Form: item COCCNC(=O)C(CNC(=O)c1ccc2c(c1)OCO2)NC(=O)c1ccc(-c2ccccc2)cc1 (stereo not given) ; test system Glucose transporter (Leishmania mexicana); inhibition: 0.64
